biological target: PDE10A (Homo sapiens); construct: made in house; host or cells: SF21 insect cells (baculovirus); assay: Inhibition of recombinant PDE10A (baculovirus/SF21 system), [3H]-cAMP SPA; assay type: biochemical; conditions: recombinant PDE10A1, cytosolic; 0.1 μM [3H]-cAMP, 37° C., 30 minutes; read-out: PDE10A IC50
Sequence (Q9Y233 1-779 isoform Q9Y233-1): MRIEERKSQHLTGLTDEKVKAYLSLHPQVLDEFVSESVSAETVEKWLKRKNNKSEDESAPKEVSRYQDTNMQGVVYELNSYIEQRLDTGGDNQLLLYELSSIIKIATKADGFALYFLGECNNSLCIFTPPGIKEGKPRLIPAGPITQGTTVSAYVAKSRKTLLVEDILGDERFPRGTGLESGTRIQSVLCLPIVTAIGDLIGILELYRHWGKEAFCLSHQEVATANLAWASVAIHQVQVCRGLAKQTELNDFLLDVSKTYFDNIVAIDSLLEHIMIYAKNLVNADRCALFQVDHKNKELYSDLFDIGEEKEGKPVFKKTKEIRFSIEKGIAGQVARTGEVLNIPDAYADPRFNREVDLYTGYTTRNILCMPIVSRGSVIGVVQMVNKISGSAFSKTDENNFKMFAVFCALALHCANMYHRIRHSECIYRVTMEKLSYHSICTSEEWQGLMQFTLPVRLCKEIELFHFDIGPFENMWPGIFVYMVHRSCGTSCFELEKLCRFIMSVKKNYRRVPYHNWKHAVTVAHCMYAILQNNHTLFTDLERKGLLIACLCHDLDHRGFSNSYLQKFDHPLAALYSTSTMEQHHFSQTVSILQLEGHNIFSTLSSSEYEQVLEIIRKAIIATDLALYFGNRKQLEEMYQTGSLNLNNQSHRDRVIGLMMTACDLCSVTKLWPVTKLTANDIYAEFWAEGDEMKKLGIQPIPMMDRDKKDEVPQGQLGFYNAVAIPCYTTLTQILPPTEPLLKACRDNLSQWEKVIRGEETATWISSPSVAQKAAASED
measuredProperty: pIC50
Just so you know, pIC50 here is -log10 of the concentration in molar units; reply with that number alone.

Recorded pIC50, per entry:
Lab request: please report pIC50 under test system PDE10A (Homo sapiens) for "COc1cncc(-c2nc(C)c3nnc4c(OC)cc(F)cc4n23)c1" 7.41

Subsequent entry: "COc1cc(F)c2nnc3c(C)nc(-c4cc(C(N)=O)ccc4F)n3c2c1" 7.81

Subsequent entry: "Cc1nc(-c2ccccc2Cl)n2c1nnc1ccc(-n3ccnc3)cc12" 8.05

Subsequent entry: "COc1cc(F)cc2c1nnc1c(C)nc(-c3cnc(F)c(C)c3)n12" 6.88

Subsequent entry: "Cc1nc(-c2cc(Cl)ccc2Cl)n2c1nnc1ccc(Cl)cc12" 7.11

Subsequent entry: "COc1ccc2c(c1)nnc1c(C)nc(-c3cccnc3C)n12" 6.45

Subsequent entry: "Cc1ccccc1-c1nc(C)c2nnc3cc(F)ccc3n12" 6.44

We now examine a further compound.
Lab request: please report pIC50 under test system PDE10A (Homo sapiens) for "COc1cc(F)cc2c1nnc1c(C)nc(-c3cc(OC(F)(F)F)ccc3Cl)n12" 7.92
